B1: TRAF3IP2 (parent)
chain: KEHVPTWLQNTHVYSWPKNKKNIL

# Variants of: B1
# experiment.notes: protein stability index of a GFP-peptide fusion (GPS, HEK-293T) (PSI 1-6); higher = more stable;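 note: lentivirally expressed fusions sorted by FACS into six bins by GFP to DsRed ratio, PSI derived from sequencing read proportions per bin multiplied by bin number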
# test.conditions: c terminus: a fixed tail appended
Listed below: protein stability index values for each entry.
endpoint.name: protein stability index

[[record]]
mutation_id = "N10M"
reported = 2.25

[[record]]
mutation_id = "Y14F"
reported = 2.05

[[record]]
mutation_id = "P17W"
reported = 2.1

[[record]]
mutation_id = "K1S"
reported = 2.76

[[record]]
mutation_id = "E2S"
reported = 2.53

[[record]]
mutation_id = "Y14N"
reported = 3.24

[[record]]
mutation_id = "I23T"
reported = 2.54

[[record]]
mutation_id = "P17G"
reported = 2.17

[[record]]
mutation_id = "W16N"
reported = 3.39

[[record]]
mutation_id = "N19P"
reported = 2.43

[[record]]
mutation_id = "V13L"
reported = 2.44

[[record]]
mutation_id = "W7G"
reported = 3.99

[[record]]
mutation_id = "K18L"
reported = 2.41

[[record]]
mutation_id = "H12P"
reported = 2.94

[[record]]
mutation_id = "E2D"
reported = 2.47

[[record]]
mutation_id = "K20G"
reported = 2.18

[[record]]
mutation_id = "K20T"
reported = 2.96

[[record]]
mutation_id = "W16T"
reported = 3.68

[[record]]
mutation_id = "L8W"
reported = 2.63

[[record]]
mutation_id = "I23W"
reported = 2.3

[[record]]
mutation_id = "N10A"
reported = 2.34

[[record]]
mutation_id = "Q9F"
reported = 2.38


Values from the supplement of paper PMC10567573
